# credit: paper PMC3498903

System: P. falciparum TM91-C235
Assay: Malaria SYBR Green I-based fluorescence
Format: cell-based, Plasmodium falciparum
Settings: Plasmodium falciparum, 72 h, read-out: C235 IC50
Measure Name: pIC50
Answers are plain numbers, as −log10 of the molar value.

Return the recorded pIC50 value; entry: CCN(CC)CCCC(C)Nc1ccnc2cc(Cl)ccc12 (stereo not shown) [Chloroquine, reference compound] 7.05
